// provenance: patent US20250282881A1

I'd be grateful if you could share measured koff for these entries.
# TARGET: T1, recombinant human OX40/His fusion protein (Novoprotein, CB17) (human, UniProt P43489 29-216)
# T1 construct: Bought protein
# T1 sequence: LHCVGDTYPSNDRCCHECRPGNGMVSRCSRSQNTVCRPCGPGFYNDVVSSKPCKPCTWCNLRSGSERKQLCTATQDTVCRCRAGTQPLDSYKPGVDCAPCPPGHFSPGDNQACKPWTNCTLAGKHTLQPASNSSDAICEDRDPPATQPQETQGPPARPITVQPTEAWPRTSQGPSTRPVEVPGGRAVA
# EXPERIMENT_NOTES: BLI (Octet RED96), antibody on AHC sensor, OX40/His as analyte, test group 2
Output spec: scalar in s⁻¹, unitless text.

koff for HuEM1007-044-7 (antibody, human IgG1, kappa, L234A L235A, V domains shown, Humanized anti-OX40, human IgG1 LALA / kappa) VH: EVQLVQSGAEVKKPGSSVKVSCKASGHTFSSSWMNWVRQAPGQGLEWIGRIYPGDEITNYNGKFKDRVTLTADKSTSTAYMELSSLRSEDTAVYYCARDLLMPYWGQGTLVTVSS VL: DIVMTQTPLSLPVTPGEPASISCRSSKSLLYSNGITYLYWYLQKPGQSPQLLIYQMSNLAPGVPDRFSSSGSGTDFTLKISRVEAEDVGVYYCAQNLELPFTFGQGTKLEIKR ?
0.00109

koff for EM1007-mAb044c-10 (antibody, human IgG1, kappa, L234A L235A, V domains shown) VH: QVQLQQSGPELVKPGASVTISCKASGHAFSSSWMNWVKQRPGKGLEWIGRIYPGDEITNYNGKFKDKATLTADKSSSTAYMQLSSLTFEDSAVYFCARDLLMPYWGQGTLVTVSA VL: DIVMTQTAFSNPVTLGTSASISCRSSKSLLYSNAITYLYWYLQKPGQSPHLLIYQMSNLAPGVPDRFSSSGSGTDFTLRISRVEAEDVGIYYCAQNLELPFTFGSGTKLEIKR ?
0.000299

koff for EM1007-mAb044c-12 (antibody, human IgG1, kappa, L234A L235A, V domains shown) VH: QVQLQQSGPELVKPGASVTISCKASGHAFSSSWMNWVKQRPGKGLEWIGRIYPGDEITNYNGKFKDKATLTADKSSSTAYMQLSSLTFEDSAVYFCARDLLMPYWGQGTLVTVSA VL: DIVMTQTPLSLPVTPGEPASISCRSSKSLLYSNGITYLYWYLQKPGQSPQLLIYQMSNLAPGVPDRFSGSGSGTDFTLKISRVEAEDVGVYYCAQNLELPFTFGQGTKLEIKR ?
0.00081

koff for EM1007-mAb044c-11 (antibody, human IgG1, kappa, L234A L235A, V domains shown) VH: QVQLQQSGPELVKPGASVTISCKASGHAFSSSWMNWVKQRPGKGLEWIGRIYPGDEITNYNAKFKDKATLTADKSSSTAYMQLSSLTFEDSAVYFCARDLLMPYWGQGTLVTVSA VL: DIVMTQTAFSNPVTLGTSASISCRSSKSLLYSNAITYLYWYLQKPGQSPHLLIYQMSNLAPGVPDRFSSSGSGTDFTLRISRVEAEDVGIYYCAQNLELPFTFGSGTKLEIKR ?
0.000317

koff for EM1007-44c (antibody, human IgG1, V domains shown, also called EM1007-mAb044c; EM1007-044c) VH: QVQLQQSGPELVKPGASVTISCKASGHAFSSSWMNWVKQRPGKGLEWIGRIYPGDEITNYNGKFKDKATLTADKSSSTAYMQLSSLTFEDSAVYFCARDLLMPYWGQGTLVTVSA VL: DIVMTQTAFSNPVTLGTSASISCRSSKSLLYSNGITYLYWYLQKPGQSPHLLIYQMSNLAPGVPDRFSSSGSGTDFTLRISRVEAEDVGIYYCAQNLELPFTFGSGTKLEIK ?
0.000318

koff for EM1007-mAb044c-9 (antibody, human IgG1, kappa, L234A L235A, V domains shown) VH: QVQLQQSGPELVKPGASVTISCKASGHAFSSSWMNWVKQRPGKGLEWIGRIYPGDEITNYNAKFKDKATLTADKSSSTAYMQLSSLTFEDSAVYFCARDLLMPYWGQGTLVTVSA VL: DIVMTQTAFSNPVTLGTSASISCRSSKSLLYSNGITYLYWYLQKPGQSPHLLIYQMSNLAPGVPDRFSSSGSGTDFTLRISRVEAEDVGIYYCAQNLELPFTFGSGTKLEIKR ?
0.000309

koff for HuEM1007-044-8 (antibody, human IgG1, kappa, L234A L235A, V domains shown, Humanized anti-OX40, human IgG1 LALA / kappa) VH: EVQLVQSGAEVKKPGSSVKVSCKASGHTFSSSWMNWVKQAPGKGLEWIGRIYPGDEITNYNGKFKDKVTLTADKSTSTAYMELSSLRSEDTAVYYCARDLLMPYWGQGTLVTVSS VL: DIVMTQTPLSLPVTPGEPASISCRSSKSLLYSNGITYLYWYLQKPGQSPQLLIYQMSNLAPGVPDRFSSSGSGTDFTLKISRVEAEDVGVYYCAQNLELPFTFGQGTKLEIKR ?
0.00101
